- Study target: D4 human receptors (Homo sapiens)
- Construct: expressed in transfected cells; host or cells: CHO cells
- Sequence (P21917 whole entry): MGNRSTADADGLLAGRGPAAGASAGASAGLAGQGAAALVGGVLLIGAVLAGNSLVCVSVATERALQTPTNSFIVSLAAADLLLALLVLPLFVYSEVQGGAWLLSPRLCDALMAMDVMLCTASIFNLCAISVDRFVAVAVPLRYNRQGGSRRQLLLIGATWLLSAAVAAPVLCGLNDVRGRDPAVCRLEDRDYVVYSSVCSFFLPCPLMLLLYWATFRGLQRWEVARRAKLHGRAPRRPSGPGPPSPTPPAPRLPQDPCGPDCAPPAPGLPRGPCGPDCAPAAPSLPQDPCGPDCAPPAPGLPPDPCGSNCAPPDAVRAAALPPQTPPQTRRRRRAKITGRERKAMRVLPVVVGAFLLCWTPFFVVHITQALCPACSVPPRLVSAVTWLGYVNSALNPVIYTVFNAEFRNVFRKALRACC
- Protocol: D4 Radioligand Receptor Binding Assay ([3H] YM-09151-2, CHO cell membranes)
- Condition info: compound 10^−7 M, singlicate, [3H] YM-09151-2 0.15-0.25 nM
So basically: D4 Receptor Binding Assay % inhibition (10^−7 M) at 70% or higher? That is t. Lower than 70%? That is f.

Task: Quick check: does COc1ccccc1N1CCN(CCn2c(=O)n(CCO)c3ccccc32)CC1 have D4 Receptor Binding Assay % inhibition (10^−7 M) greater than or equal to 70%?
Result: f

Task: Hi team, for O=c1n(CCCCN2CC=C(c3ccccc3)CC2)c2ccccc2n1CCN1CCCCC1 , is the recorded D4 Receptor Binding Assay % inhibition (10^−7 M) at or above 70%?
Result: t

Task: Textbook exercise: given the entry CCNC(=O)OCCn1c(=O)n(C/C=C\CN2CCN(c3ccccc3)CC2)c2ccccc21 , state whether its D4 Receptor Binding Assay % inhibition (10^−7 M) is greater than or equal to 70%.
Result: f

Task: Is reported D4 Receptor Binding Assay % inhibition (10^−7 M) greater than or equal to 70% here: COCCn1c(=O)n(CCCCN2CCc3c([nH]c4ccccc34)C2)c2ccccc21
Result: t

Task: Does CCNC(=O)OCCn1c(=O)n(C/C=C/CN2CCN(c3ccccc3)CC2)c2ccccc21 have a reported D4 Receptor Binding Assay % inhibition (10^−7 M) of at least 70%?
Result: f

Task: Entry CCNC(=O)OCCn1c(=O)n(CCCCN2CCN(c3cccc(Cl)c3)CC2)c2ccccc21 : is its D4 Receptor Binding Assay % inhibition (10^−7 M) no less than 70%?
Result: f

Task: Say whether CC(=O)NCCn1c(=O)n(CCCCN2CCN(c3ccc(Cl)c(Cl)c3)CC2)c2ccccc21 shows D4 Receptor Binding Assay % inhibition (10^−7 M) of 70% or more.
Result: f

Task: // inclusive: D4 Receptor Binding Assay % inhibition (10^−7 M) at least 70%? input: O=c1n(CCO)c2ccccc2n1CCCCN1CC=C(c2ccccc2)CC1
Result: t

Task: # check: D4 Receptor Binding Assay % inhibition (10^−7 M) of O=c1n(CCCCN2CCN(c3cccc(Cl)c3)CC2)c2ccccc2n1CCN1CCCCC1 is greater than or equal to 70%
Result: f

----------
I'd appreciate it if you could supply 5-HT1A Receptor Binding Assay % inhibition (10^−7 M) values for the items below.
- Study target: UniProt:P08908
- Sequence (P08908 whole entry): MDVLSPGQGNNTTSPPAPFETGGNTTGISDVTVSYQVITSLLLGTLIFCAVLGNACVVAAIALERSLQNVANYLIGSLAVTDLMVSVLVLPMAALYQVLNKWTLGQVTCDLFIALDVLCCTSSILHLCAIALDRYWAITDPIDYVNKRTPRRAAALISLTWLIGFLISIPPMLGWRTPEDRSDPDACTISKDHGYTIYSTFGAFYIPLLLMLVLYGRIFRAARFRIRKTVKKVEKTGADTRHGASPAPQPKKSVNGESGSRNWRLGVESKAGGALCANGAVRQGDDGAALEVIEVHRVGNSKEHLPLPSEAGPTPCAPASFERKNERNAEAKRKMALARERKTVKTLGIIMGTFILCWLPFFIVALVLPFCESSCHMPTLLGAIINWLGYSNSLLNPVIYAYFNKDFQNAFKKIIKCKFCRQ
- Protocol: 5HT1A Radioligand Receptor Binding Assay ([3H]-8-OH-DPAT, CHO cell membranes)
- Set-up: expressed in transfected cells; host or cells: CHO cells
- Condition info: compound 10^−7 M, singlicate; [3H]-8-OH-DPAT 0.6-0.7 nM; CHO membranes, human 5-HT1A
Express it in %; write the number only.

With UniProt:P08908 as the test system, CS(=O)(=O)NCCn1c(=O)n(C/C=C\CN2CCN(c3ccc(Cl)c(Cl)c3)CC2)c2ccccc21 showed 5-HT1A Receptor Binding Assay % inhibition (10^−7 M) of 78

Test item COCCn1c(=O)n(CCCCN2CC=C(c3ccccc3)CC2)c2ccccc21 ; UniProt:P08908; reported 5-HT1A Receptor Binding Assay % inhibition (10^−7 M) was 60

Sample CCNC(=O)OCCn1c(=O)n(CCCCN2CCN(c3cccc(Cl)c3)CC2)c2ccccc21 , system: UniProt:P08908. Its 5-HT1A Receptor Binding Assay % inhibition (10^−7 M) is 86

Per the reported UniProt:P08908 data, CS(=O)(=O)NCCn1c(=O)n(C/C=C\CN2CCc3c([nH]c4ccccc34)C2)c2ccccc21 has 5-HT1A Receptor Binding Assay % inhibition (10^−7 M) of 70

5-HT1A Receptor Binding Assay % inhibition (10^−7 M) of CCNC(=O)OCCn1c(=O)n(CCCCN2CCN(c3ccccc3OC)CC2)c2ccccc21 , assay on UniProt:P08908, is 94

Given the compound COCCn1c(=O)n(CCCCN2CCN(c3ccccc3OC)CC2)c2ccccc21 and test system UniProt:P08908, the measured 5-HT1A Receptor Binding Assay % inhibition (10^−7 M) is 69

The compound O=c1n(CCN2CCCCC2)c2ccccc2n1CCN1CCN(c2cccc(C(F)(F)F)c2)CC1 , when measured on UniProt:P08908, yielded 5-HT1A Receptor Binding Assay % inhibition (10^−7 M) of 88

The compound CCNC(=O)OCCn1c(=O)n(C/C=C\CN2CCN(c3ccccc3)CC2)c2ccccc21 , when measured on UniProt:P08908, yielded 5-HT1A Receptor Binding Assay % inhibition (10^−7 M) of 86

Lab note: compound CC(=O)NCCn1c(=O)n(CCCCN2CCN(c3ccccc3Cl)CC2)c2ccccc21 tested on UniProt:P08908; recorded 5-HT1A Receptor Binding Assay % inhibition (10^−7 M) was 80

With UniProt:P08908 as the test system, O=c1n(CCCCN2CCN(c3ccccc3)CC2)c2ccccc2n1CCN1CCCCC1 showed 5-HT1A Receptor Binding Assay % inhibition (10^−7 M) of 50

5-HT1A Receptor Binding Assay % inhibition (10^−7 M) for UniProt:P08908 with input O=c1n(CCO)c2ccccc2n1CCCCN1CCN(c2ccccn2)CC1 equals 75

Response field 5-HT1A Receptor Binding Assay % inhibition (10^−7 M) (UniProt:P08908) for item O=c1n(CCCCN2CCN(c3ccccn3)CC2)c2ccccc2n1CCN1CCCCC1 : 73

Assay UniProt:P08908, sample COCCn1c(=O)n(CCCCN2CCN(c3ccccc3)CC2)c2ccccc21 , 5-HT1A Receptor Binding Assay % inhibition (10^−7 M) read: 56

CC(=O)NCCn1c(=O)n(CCCCN2CCN(c3ccc(Cl)c(Cl)c3)CC2)c2ccccc21 on UniProt:P08908 gives 5-HT1A Receptor Binding Assay % inhibition (10^−7 M) = 55

Field 5-HT1A Receptor Binding Assay % inhibition (10^−7 M) (UniProt:P08908), entry O=c1n(C/C=C\CN2CCN(c3ccccc3)CC2)c2ccccc2n1CCO : 86

5-HT1A Receptor Binding Assay % inhibition (10^−7 M) of CCNC(=O)OCCn1c(=O)n(CCCCN2CCN(c3ccc(Cl)c(Cl)c3)CC2)c2ccccc21 , assay on UniProt:P08908, is 77

Sample COCCn1c(=O)n(CCCCN2CCN(c3ccc(Cl)c(Cl)c3)CC2)c2ccccc21 , system: UniProt:P08908. Its 5-HT1A Receptor Binding Assay % inhibition (10^−7 M) is 48

UniProt:P08908 assay, compound O=c1n(CCN2CC=C(c3ccccc3)CC2)c2ccccc2n1CCN1CCCCC1 , recorded 5-HT1A Receptor Binding Assay % inhibition (10^−7 M) = 57

With UniProt:P08908 as the test system, CCNC(=O)OCCn1c(=O)n(CCCCN2CCN(c3cccc(C)c3)CC2)c2ccccc21 showed 5-HT1A Receptor Binding Assay % inhibition (10^−7 M) of 88

Per the reported UniProt:P08908 data, O=c1n(C/C=C/CN2CC=C(c3ccccc3)CC2)c2ccccc2n1CCN1CCCCC1 has 5-HT1A Receptor Binding Assay % inhibition (10^−7 M) of 90

Tested system UniProt:P08908; 5-HT1A Receptor Binding Assay % inhibition (10^−7 M) recorded for O=c1n(C/C=C/CN2CCN(c3ccccc3)CC2)c2ccccc2n1CCN1CCCCC1 was 78

Bench note, UniProt:P08908: entry COCCn1c(=O)n(CCN2CC=C(c3ccccc3)CC2)c2ccccc21 , its 5-HT1A Receptor Binding Assay % inhibition (10^−7 M) = 85

Response field 5-HT1A Receptor Binding Assay % inhibition (10^−7 M) (UniProt:P08908) for item O=c1n(C/C=C/CN2CCN(c3ncccn3)CC2)c2ccccc2n1CCN1CCOCC1 : 73

Kindly note: UniProt:P08908, COc1ccccc1N1CCN(CCn2c(=O)n(CCO)c3ccccc32)CC1 , 5-HT1A Receptor Binding Assay % inhibition (10^−7 M) value reported: 77

Lab entry: UniProt:P08908 assay, compound O=c1n(CCCCN2CCc3c([nH]c4ccccc34)C2)c2ccccc2n1CCN1CCCCC1 , 5-HT1A Receptor Binding Assay % inhibition (10^−7 M) = 70

Item: CCNC(=O)OCCn1c(=O)n(CCCCN2CCN(c3ccccn3)CC2)c2ccccc21 | System: UniProt:P08908 | 5-HT1A Receptor Binding Assay % inhibition (10^−7 M): 69

Note to self: 5-HT1A Receptor Binding Assay % inhibition (10^−7 M) of O=c1n(C/C=C\CN2CCN(c3ccccn3)CC2)c2ccccc2n1CCO with UniProt:P08908 was 77

Bench note, UniProt:P08908: O=c1n(CCO)c2ccccc2n1CCN1CCN(c2ccccn2)CC1 , 5-HT1A Receptor Binding Assay % inhibition (10^−7 M) reads 62

Entry O=c1n(C/C=C\CN2CC=C(c3ccccc3)CC2)c2ccccc2n1CCN1CCCCC1 : 5-HT1A Receptor Binding Assay % inhibition (10^−7 M) on UniProt:P08908 = 94

Value (5-HT1A Receptor Binding Assay % inhibition (10^−7 M), UniProt:P08908) for record O=c1n(CCN2CCCCC2)c2ccccc2n1CCN1CCN(c2cccc(Cl)c2)CC1 = 85

Where do the numbers come from? From patent US6521623B1.
